- Test system: XIP peptide (Xip251-270) binding
- EXPERIMENTAL PROTOCOL: XIP fragment 251-270 binding compounds – biochemical, small-molecule microarray, fluorescence 635/667 nm, 0.1 µg/mL protein, primary screen (AID 1182)
- EXPERIMENTAL SETUP: fluorescent protein binding, 635 nm, higher = more signal, called active from +8 up or from −8 down
Tick criterion met if composite z-score is 0.1 or greater. Tick criterion not met if composite z-score is less than 0.1.

Past entries and their recorded results:
COMPOUND	TARGET OF ASSAY	LABEL VALUE
CCOC(=O)C[C@H]1[C@H](OC(=O)Cc2ccc3c(c2)OCO3)[C@@H](NC(=O)C2CCCCC2)c2cc(OCCCO)ccc2N1C(=O)c1ccccc1	XIP peptide (Xip251-270) binding	criterion not met
CC1CC/C=C\[C@H]2OC34C=CCN(c5ccc(Cl)cc5)C(=O)[C@H]3N(C(C)CO)C(=O)[C@]4(C)C2C(=O)O1 (stereo not given in full)	XIP peptide (Xip251-270) binding	criterion not met
COC(=O)[C@@]1(Cc2ccc(OC)cc2)[C@H]2c3cc(C(=O)N(C)C)n(Cc4ccc(OC(F)(F)F)cc4)c3C[C@H]2CN1C(=O)c1ccccc1	XIP peptide (Xip251-270) binding	criterion not met
[N-]=[N+]=Nc1ccccc1C[C@@]1(C(=O)N2CCOCC2)N=C(c2ccc(OCCCO)cc2)O[C@@H]1c1ccccc1	XIP peptide (Xip251-270) binding	criterion met
C=C(COC)/C(=C/C[C@H](OC(=O)c1ccncc1)c1ccccc1OCCO)c1cc(C(=O)OC)ccc1OC	XIP peptide (Xip251-270) binding	criterion not met

Prompt: Quick check, composite z-score >= 0.1? `O=C1O[C@@H](c2ccccc2)[C@@H](c2ccccc2)N2[C@@H](c3ccc(OCCO)cc3)[C@]3(C(=O)Nc4ccc(C#CC5=CCCCC5)cc43)[C@@H](C(=O)NC[C@H](O)c3ccccc3)[C@H]12`
Response: criterion met

Prompt: Here is the next compound: `C=CCOC(=O)[C@@]1(Cc2ccccc2)C[C@H]2CO[C@H](c3ccc(OC)cc3)N2C1=O`
Response: criterion not met

Prompt: Repeat with `COCCOC(=O)N1C(=O)[C@@]2(c3cc(C#CCCO)ccc31)[C@H](c1ccc(OCCO)cc1)N1[C@H](c3ccccc3)[C@H](c3ccccc3)OC(=O)[C@H]1[C@@H]2C(=O)Nc1nc2ccccc2s1`
Response: criterion met

Prompt: How about `COC(=O)C/C=C/C[C@]1(O)C(=O)N(C)c2ccccc21` ?
Response: criterion not met

Prompt: Ok, now `CO[C@H]1O[C@H](CO)[C@@H](OC(=O)Nc2ccccc2)[C@H](OC(=O)c2cc3ccccc3[nH]2)[C@H]1OC(=O)c1cc2ccccc2[nH]1`
Response: criterion met

Prompt: Would you mind doing `CCCNC(=O)[C@@H]1c2ccccc2C(=O)N(Cc2ccc(OC(F)(F)F)cc2)[C@H]1c1ccc(CO)cc1` as well?
Response: criterion met

Prompt: // query: `COC(=O)[C@@]1(Cc2ccccc2)[C@H]2c3cc(C(=O)N4CCCC4)n(CCc4ccccn4)c3C[C@H]2CN1C(=O)c1ccccc1`
Response: criterion met

Prompt: And the next one, `CC(C)N1C(=O)C[C@@](C(=O)NC2CC2)(c2ccc([N+](=O)[O-])cc2)[C@H]1c1ccc(CO)cc1` ?
Response: criterion met

Prompt: Follow-up entry: `CCCCC(=C=CC[C@H](O)c1ccc(OCCO)cc1)CCO`
Response: criterion not met

Prompt: Try the compound COC(=O)C1=CC(CCCO)=CC(c2cccs2)N(C)C=C1C(=O)OC (stereo not given)
Response: criterion not met
